# System: 186277-243-T-J2-PDC spheroids with HUVEC/MSC, viability
# procedureSummary: Anticancer human tumor 186277-243-T-J2-PDC patient-derived colon adenocarcinoma cell line growth inhibition [CLK]; active = viability on the fitted dose curve at most 10% of control; inactive = the rest
# conditionSummary: second compound 3.16 µM; first compound 3.16 µM
Possible outcomes: 1 (yes) for active, 0 (no) for inactive

{"columns": ["molecule", "assaySystem", "qualitativeLabel"],
 "data": [
  ["CC(=O)O[C@H]1C(=O)[C@@]2(C)[C@H]([C@H](OC(=O)c3ccccc3)[C@]3(O)C[C@H](OC(=O)[C@H](O)[C@@H](NC(=O)c4ccccc4)c4ccccc4)C(C)=C1C3(C)C)[C@]1(OC(C)=O)CO[C@@H]1C[C@@H]2O + CNC(=O)c1ccc(Nc2nc(OC3CCCC3)c3c(-c4ccc5nc(C)oc5c4)c[nH]c3n2)c(OC)c1", "186277-243-T-J2-PDC spheroids with HUVEC/MSC, viability", "0 (no)"],
  ["O=C(c1cc(Cc2n[nH]c(=O)c3ccccc23)ccc1F)N1CCN(C(=O)C2CC2)CC1 + CNC(=O)c1ccc(Nc2nc(OC3CCCC3)c3c(-c4ccc5nc(C)oc5c4)c[nH]c3n2)c(OC)c1", "186277-243-T-J2-PDC spheroids with HUVEC/MSC, viability", "0 (no)"],
  ["C#Cc1c(F)ccc2cc(O)cc(-c3ncc4c(N5CC6CCC(C5)N6)nc(OCC56CCCN5CC(F)C6)nc4c3F)c12 (stereo not given) + CN1CCN(c2cc(C(=O)Nc3cc4cc(-c5cnn(C)c5)ccc4cn3)ccn2)CC1", "186277-243-T-J2-PDC spheroids with HUVEC/MSC, viability", "1 (yes)"],
  ["O=C(c1cc(Cc2n[nH]c(=O)c3ccccc23)ccc1F)N1CCN(C(=O)C2CC2)CC1 + CN1CCN(c2cc(C(=O)Nc3cc4cc(-c5cnn(C)c5)ccc4cn3)ccn2)CC1", "186277-243-T-J2-PDC spheroids with HUVEC/MSC, viability", "1 (yes)"],
  ["C=CC(=O)N1CCN(c2nc(=O)n(-c3c(C)ccnc3C(C)C)c3nc(-c4c(O)cccc4F)c(F)cc23)C(C)C1 (stereo not given) + CNC(=O)c1ccc(Nc2nc(OC3CCCC3)c3c(-c4ccc5nc(C)oc5c4)c[nH]c3n2)c(OC)c1", "186277-243-T-J2-PDC spheroids with HUVEC/MSC, viability", "0 (no)"]
]}

###

# Tested on: 186277-243-T-J2-PDC spheroids with HUVEC/MSC, viability
# procedureSummary: Anticancer human tumor 186277-243-T-J2-PDC cell line growth inhibition [CLK];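 note: compound exposure lasted seven days before readout; 100% = DMSO vehicle control wells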
# conditionSummary: second compound 1 µM; first compound 0.03 µM; active compounds read low
# Excerpt: A high-throughput screen of multi-cell type tumor spheroids was designed to identify active combinations of […] and targeted small molecules. Complex spheroids include a stromal component modeled by human endothelial cells (HUVEC) and fibroblasts modeled by human mesenchymal stem cells (MSCs). […] Compounds. […] If the clinical Cmax for an agent had not been determined, the highest concentration tested was 10 microM. […]

{"columns": ["compound", "unitAnnotation", "viability, T/C"],
 "data": [
  ["CC(C)CC(NC(=O)C(Cc1ccccc1)NC(=O)c1cnccn1)B(O)O (stereo not drawn) + CNC(=O)c1ccc(Nc2nc(OC3CCCC3)c3c(-c4ccc5nc(C)oc5c4)c[nH]c3n2)c(OC)c1", "%", 2.6],
  ["NC(=O)C(=Cn1cnc(-c2cc(C(F)(F)F)cc(C(F)(F)F)c2)n1)c1cncnc1 + CNC(=O)c1ccc(Nc2nc(OC3CCCC3)c3c(-c4ccc5nc(C)oc5c4)c[nH]c3n2)c(OC)c1", "%", 24.7],
  ["CC(C)CC(NC(=O)C(Cc1ccccc1)NC(=O)c1cnccn1)B(O)O (stereo not drawn) + CN1CCN(c2cc(C(=O)Nc3cc4cc(-c5cnn(C)c5)ccc4cn3)ccn2)CC1", "%", 0.8]
]}

###

# Test system: 186277-243-T-J2-PDC spheroids with HUVEC/MSC, viability
# procedureSummary: Anticancer human tumor 186277-243-T-J2-PDC cell line growth inhibition [CLK];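 note: compound exposure lasted seven days before readout; 100% = DMSO vehicle control wells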
# conditionSummary: second compound 0.316 µM; first compound 0.0316 µM; active compounds read low
experimentalEndpoint: viability, T/C

{"columns": ["compound", "experimentalEndpoint", "reportedResult"],
 "data": [
  ["CCCS(=O)(=O)Nc1ccc(F)c(C(=O)c2c[nH]c3ncc(-c4ccc(Cl)cc4)cc23)c1F + CN1CCN(c2cc(C(=O)Nc3cc4cc(-c5cnn(C)c5)ccc4cn3)ccn2)CC1", "viability, T/C", "30.5%"],
  ["CC(Nc1ccc2c(c1)OCCn1cc(N3C(=O)OCC3C(F)F)nc1-2)C(N)=O (configuration not stated) + CN1CCN(c2cc(C(=O)Nc3cc4cc(-c5cnn(C)c5)ccc4cn3)ccn2)CC1", "viability, T/C", "20.5%"],
  ["COC1C=CCC(C)C(C)S(=O)(=O)NC(=O)c2ccc3c(c2)N(CC2CCC21)CC1(CCCc2cc(Cl)ccc21)CO3 (configuration not stated) + CNC(=O)c1ccc(Nc2nc(OC3CCCC3)c3c(-c4ccc5nc(C)oc5c4)c[nH]c3n2)c(OC)c1", "viability, T/C", "39.9%"],
  ["C=C(F)C(=O)N1CCN(c2nc(OCC3CCCN3C)nc3c2CCN(c2cccc4cccc(Cl)c24)C3)CC1CC#N (configuration not stated) + CN1CCN(c2cc(C(=O)Nc3cc4cc(-c5cnn(C)c5)ccc4cn3)ccn2)CC1", "viability, T/C", "25.1%"],
  ["CCc1c2c(nc3ccc(O)cc13)-c1cc3c(c(=O)n1C2)COC(=O)[C@]3(O)CC + CNC(=O)c1ccc(Nc2nc(OC3CCCC3)c3c(-c4ccc5nc(C)oc5c4)c[nH]c3n2)c(OC)c1", "viability, T/C", "21%"],
  ["CC(=O)O[C@H]1C(=O)[C@@]2(C)[C@H]([C@H](OC(=O)c3ccccc3)[C@]3(O)C[C@H](OC(=O)[C@H](O)[C@@H](NC(=O)c4ccccc4)c4ccccc4)C(C)=C1C3(C)C)[C@]1(OC(C)=O)CO[C@@H]1C[C@@H]2O + CNC(=O)c1ccc(Nc2nc(OC3CCCC3)c3c(-c4ccc5nc(C)oc5c4)c[nH]c3n2)c(OC)c1", "viability, T/C", "40.4%"],
  ["Nc1ccn(C2OC(CO)C(O)C2(F)F)c(=O)n1 (configuration not stated) + CN1CCN(c2cc(C(=O)Nc3cc4cc(-c5cnn(C)c5)ccc4cn3)ccn2)CC1", "viability, T/C", "14.8%"]
]}

###

# System: 186277-243-T-J2-PDC spheroids with HUVEC/MSC, viability
# procedureSummary: Anticancer human tumor 186277-243-T-J2-PDC cell line growth inhibition [CLK];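 note: compound exposure lasted seven days before readout; 100% = DMSO vehicle control wells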
# conditionSummary: second compound 10 µM; first compound 0.1 µM; active compounds read low

{"columns": ["compound", "viability, T/C, %"],
 "data": [
  ["CCCS(=O)(=O)Nc1ccc(F)c(C(=O)c2c[nH]c3ncc(-c4ccc(Cl)cc4)cc23)c1F + CN1CCN(c2cc(C(=O)Nc3cc4cc(-c5cnn(C)c5)ccc4cn3)ccn2)CC1", 0.72],
  ["COc1ccc([C@@H](O)c2cc(-c3ncnc4cc(N5CCOCC5)ccc34)c(F)cc2Cl)nn1 + CNC(=O)c1ccc(Nc2nc(OC3CCCC3)c3c(-c4ccc5nc(C)oc5c4)c[nH]c3n2)c(OC)c1", 29.5],
  ["COC1C=CCC(C)C(C)S(=O)(=O)NC(=O)c2ccc3c(c2)N(CC2CCC21)CC1(CCCc2cc(Cl)ccc21)CO3 (stereo not given) + CNC(=O)c1ccc(Nc2nc(OC3CCCC3)c3c(-c4ccc5nc(C)oc5c4)c[nH]c3n2)c(OC)c1", 25.4],
  ["Nc1ccn(C2OC(CO)C(O)C2(F)F)c(=O)n1 (stereo not given) + CNC(=O)c1ccc(Nc2nc(OC3CCCC3)c3c(-c4ccc5nc(C)oc5c4)c[nH]c3n2)c(OC)c1", 9.04],
  ["CC(Nc1ccc2c(c1)OCCn1cc(N3C(=O)OCC3C(F)F)nc1-2)C(N)=O (stereo not given) + CNC(=O)c1ccc(Nc2nc(OC3CCCC3)c3c(-c4ccc5nc(C)oc5c4)c[nH]c3n2)c(OC)c1", 19.6],
  ["CC1(C)CCC(CN2CCN(c3ccc(C(=O)NS(=O)(=O)c4ccc(NCC5CCOCC5)c([N+](=O)[O-])c4)c(Oc4cnc5[nH]ccc5c4)c3)CC2)=C(c2ccc(Cl)cc2)C1 + CN1CCN(c2cc(C(=O)Nc3cc4cc(-c5cnn(C)c5)ccc4cn3)ccn2)CC1", 1.04],
  ["CC1(C)CCC(CN2CCN(c3ccc(C(=O)NS(=O)(=O)c4ccc(NCC5CCOCC5)c([N+](=O)[O-])c4)c(Oc4cnc5[nH]ccc5c4)c3)CC2)=C(c2ccc(Cl)cc2)C1 + CNC(=O)c1ccc(Nc2nc(OC3CCCC3)c3c(-c4ccc5nc(C)oc5c4)c[nH]c3n2)c(OC)c1", 30.6],
  ["CC1COCCN1c1cc(C2(S(C)(=N)=O)CC2)nc(-c2ccnc3[nH]ccc23)n1 (stereo not given) + CNC(=O)c1ccc(Nc2nc(OC3CCCC3)c3c(-c4ccc5nc(C)oc5c4)c[nH]c3n2)c(OC)c1", 35.6],
  ["CC1COCCN1c1cc(C2(S(C)(=N)=O)CC2)nc(-c2ccnc3[nH]ccc23)n1 (stereo not given) + CN1CCN(c2cc(C(=O)Nc3cc4cc(-c5cnn(C)c5)ccc4cn3)ccn2)CC1", 0.87],
  ["CCc1c2c(nc3ccc(O)cc13)-c1cc3c(c(=O)n1C2)COC(=O)[C@]3(O)CC + CNC(=O)c1ccc(Nc2nc(OC3CCCC3)c3c(-c4ccc5nc(C)oc5c4)c[nH]c3n2)c(OC)c1", 6.46]
]}
